Origin of values: patent US10130693B2

- TGT: HLA-A*02:01 (Homo sapiens, UniProt P04439, D140Y/D185E/D98H/E176V/E277Q/G131W/G231S/I119V/I121R/I166T/I218V/L300P/L318F/N151K/N90K/P208A/P217A/Q86G/Q94H/R138H/R169H/T345S)
- EXPERIMENT NOTES: MHC binding assay, UV-ligand exchange with beta2m ELISA (exchange yield), HLA-A*02
- PROTOCOL CONDITIONS: binding to HLA-A*02 ranged by peptide exchange yield
- Description: Candidate peptides for T cell based therapies according to the present invention were further tested for their MHC binding capacity (affinity). The individual peptide-MHC complexes were produced by UV-ligand exchange, where a UV-sensitive peptide is cleaved upon UV-irradiation, and exchanged with the peptide of interest as analyzed. Only peptide candidates that can effectively bind and stabilize the peptide-receptive MHC molecules prevent dissociation of the MHC complexes. […]
MEASURED QUANTITY: Peptide exchange (MHC class I binding score)

Some solved entries appear below for comparison.
[
  {
    "SUBSTANCE": "42 (VLSPFILTL; listed as Homo sapiens) [compound 42]",
    "RESULT": "+++ (50%-75% = +++)"
  },
  {
    "SUBSTANCE": "52 (ELLSSIFFL; listed as Homo sapiens) [compound 52]",
    "RESULT": "+++ (50%-75% = +++)"
  },
  {
    "SUBSTANCE": "334 (GRADALRVL; listed as Homo sapiens) [compound 334]",
    "RESULT": "+++ (50%-75% = +++)"
  },
  {
    "SUBSTANCE": "4 (ELAEIVFKV; listed as Homo sapiens) [compound 4]",
    "RESULT": "+++ (50%-75% = +++)"
  },
  {
    "SUBSTANCE": "59 (ALTKILAEL; listed as Homo sapiens) [compound 59]",
    "RESULT": "+++ (50%-75% = +++)"
  }
]

Provide Peptide exchange (MHC class I binding score) for all items below, preserving their order.
1. 22 (MLSDLTLQL; listed as Homo sapiens) [compound 22]
2. 20 (ALDGHLYAI; listed as Homo sapiens) [compound 20]
3. 36 (KLYGIEIEV; listed as Homo sapiens) [compound 36]

Response:
1: ++++ (>=75% = ++++); 2: +++ (50%-75% = +++); 3: ++++ (>=75% = ++++)
